The reader will find reported composite z-score values listed item by item below.
Molecular target: Concanavalin-A (Canavalia ensiformis)
Assay: compounds binding concanavalin A lectin – biochemical, small-molecule microarray, Alexa647 label, 635 nm, artefact control for SMM control protein annotation, primary screen (AID 1127);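 note: z combines 667 nm emission intensity with signal-to-noise across three replicate slides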
Settings: ConA-A647 binding fluorescence, higher = more signal

{"compound": "COC(=O)C(CC#Cc1ccc2c(c1)[C@]1(C(=O)N2)[C@H](C(=O)NC[C@H](O)c2ccccc2)[C@H]2C(=O)O[C@H](c3ccccc3)[C@H](c3ccccc3)N2[C@@H]1c1ccccc1OCCO)C(=O)OC", "composite z-score": 1.01}
{"compound": "CN1C(=O)C2C(C3CC3)C=C3CN(Cc4cccc(Cl)c4)[C@@H]([C@@H](O)Cc4ccccc4)C3C2C1=O (stereo partly specified)", "composite z-score": 1.06}
{"compound": "CCCC=C(CCC)[C@@H](NC(=O)c1ccc(C(F)(F)F)cc1)c1ccc(C(F)(F)F)cc1", "composite z-score": 1.07}
{"compound": "COc1ccc([Si](C)(C)[C@H]2[C@H](CCO)O[C@@]3(C(=O)N(Cc4cccc(N(C=O)c5ccccc5)c4)c4ccccc43)[C@@H]2C)cc1", "composite z-score": 1.15}
{"compound": "COCC(=C=CC[C@H](O)c1ccccc1OCCO)C[C@H](O)COCc1ccccc1", "composite z-score": 0.245}
{"compound": "NC(=O)NCC#Cc1ccc2c(c1)[C@]1(C(=O)N2)[C@H](c2ccc(OCCO)cc2)N2[C@H](c3ccccc3)[C@H](c3ccccc3)OC(=O)[C@H]2[C@@H]1C(=O)NC[C@H](O)c1ccccc1", "composite z-score": 1.03}
